Test system: OVCAR-4 ovarian
Experiment: NCI tumour cell line growth inhibition, 48 h
*1 amine or outer side, *2 acyl side, *3 side chain or, on linkers, in order; H or OH if unused. Where a SMILES comes first, the peptide text is derived from it. Bridges are numbered along the chain shown (N, C = ends). Roman numbers before positions name the chains, in order. X23 = CCCCCCCCCCCCCCC(=O)NC(CCCCN[*:2])C(=O)CN1CCCC1C(=O)[*:1]
QUANTITY_NAME: GI50

O=C1c2ccccc2-c2c1c1c(O)cccc1n2CCCc1ccccc1 yielded GI50 of 87.7 µM

Recorded result, CCc1ccc(Oc2nccc(-c3c(-c4ccc(F)cc4)ncn3C3CCNCC3)n2)cc1 , GI50: 5.02 µM

CCCCCCCCCCCCCCC(=O)NC(CCCCNC(=O)C1CCCN1C(=O)C(CCCCN)NC(=O)C(CCCCN)NC(=O)C(CCCCN)NC(=O)C(CCCNC(=N)N)NC(=O)C(CCCCN)NC(=O)C(N)C(C)C)C(=O)CN1CCCC1C(=O)NCC(=O)NC(Cc1ccccc1)C(=O)N1CCCC1C(=O)NC(CO)C(=O)NC(Cc1ccc(O)cc1)C(=O)NC(CCCCN)C(=O)NC(CC(C)C)C(=O)NC(CCCNC(=N)N)C(=O)N1CCCC1C(=O)NCC(N)=O (stereo not drawn) (I: GFPSYKLRPG-NH2 / II: H-VKRKKKP; linker I:N-II:C via X23; configuration not given here) yielded GI50 of 28.7 µM

For reference, reported GI50 for CC(=O)Nc1cc(C(c2ccccc2)c2ccccc2)cc(C(c2ccccc2)c2ccccc2)c1C stands at 21.7 µM

// sample O=C1NC(=O)C(N2CCc3ccccc32)=C1c1ccc(Cl)cc1 , its GI50 was > 25 µM

Entry under test: O=C1c2cccc3cccc(c23)C(=O)N1CC#Cc1ccc2c3c(cccc13)C(=O)N(CCN1CCNCC1)C2=O . Its GI50 was 1.93 µM

Sure, the documented GI50 for Cc1cc(N2CCN(C)CC2)nc(N(CCNc2ccnc3cc(Cl)ccc23)Cc2ccco2)n1 is 4.91 µM

For record CCOP(=O)(CCN1CCN(CCCCCOc2cc3c(cc2OC)C(=O)N2CCC[C@H]2C=N3)CC1)OCC the listed GI50 is 14.9 µM

* * *

System: UO-31 renal
Experiment: NCI tumour cell line growth inhibition, 48 h
QUANTITY_NAME: GI50

For this compound ( CC(=O)Nc1cc(C(c2ccccc2)c2ccccc2)cc(C(c2ccccc2)c2ccccc2)c1C ), measured GI50 is 3.54 µM

The compound identified as COc1ccc(C2c3cc4c(c(OC)c3CC3OCC(=O)C32)OCO4)cc1OC (stereo unspecified) registered its GI50 at < 0.01 µM

Entry CS(=O)/C(C#N)=C\C=C\c1cccc(Cl)c1 (stereo unspecified) , GI50 reported as 1.97 µM

Record O=c1[nH]cc(CO)c(=O)[nH]1 , field GI50: > 100 µM

The reported value for COc1ccc(-c2nnc(Nc3nc(O)c(C4=c5cc(OC(F)(F)F)ccc5=NC4=O)s3)o2)cc1 in terms of GI50 is 21.9 µM

The measured GI50 associated with O=c1c(-c2ccc3c(c2)OCO3)coc2c(CO)c(O)ccc12 reads 2.89 µM

For Cc1cc(C(=O)N2CCN(C)CC2)c2c(=O)n(-c3ccccc3)c(=O)n(CC(O)CN3CCN(c4ncccn4)CC3)c2n1 (stereo unspecified) the compound record lists GI50 as > 100 µM

Note to self: GI50 recorded for Cc1cn(C2CC(N=[N+]=[N-])C(CO)O2)c(=O)[nH]c1=O (stereo unspecified) was > 1000 µM

Just so you know, measured GI50 for Nc1ncnc2c1nc(N)n2C1OC(CO)C(O)C1O (stereo unspecified) came out at 0.295 µM

The recorded GI50 for CCN(CC)CCNC(=O)c1cc(Cl)c(N)cc1OC is 99.1 µM

Kindly note the recorded GI50 for Cc1ccc2c(n1)C(=O)C(Cl)=C(Nc1ccc(N3CCN(C)CC3)cc1)C2=O , which is 1.63 µM

Measured GI50, Cc1cc(Br)c2nsnc2c1[N+](=O)[O-] : 2.05 µM

The recorded GI50 for entry O=[N+]([O-])c1ccc(N/N=C/c2ccccc2O)nc1 equals 0.623 µM

GI50 for COc1ccc(C2=NNC(c3cc(Cc4ccc(O)c(C5CC(c6ccc(OC)cc6)=NN5)c4)ccc3O)C2)cc1 (stereo unspecified) is 4.29 µM

Record O=C1NC(=O)C(N2CCc3ccccc32)=C1c1ccc(Cl)cc1 . Reported GI50: > 17.3 µM

GI50 for Cc1ccc(-c2c3c(N)nc(-c4ccncc4)nc3nc3c2c(C)nn3-c2ccccc2)cc1 is > 37.5 µM
